System: MCF7
ASSAY INFO: Antiproliferative activity against human MCF7 cells assessed as cell viability pre-incubated for 24 hrs with CO2 followed by compound addition after 72 hrs by MTT assay
Format: functional, cell-based
pIC50: −log10 of the molar value.
PARAMETER MEASURED: pIC50

> print(dat)
                                   compound  endpoint.value
1  COc1ccc([C@@H]2[C@H](Oc3ccccc3)C(=O)N2c2cc(OC)c(OC)c(OC)c2)cc1NC(=O)CN (relative stereo)            5.19
2  COc1cc(N2C(=O)[C@@H](Oc3ccccc3)[C@H]2c2cc(O)c(OC)c([N+](=O)[O-])c2)cc(OC)c1OC (relative stereo)            4.16
3  COc1ccc([C@@H]2[C@@H](Oc3ccccc3)C(=O)N2c2cc(OC)c(OC)c(OC)c2)cc1[N+](=O)[O-] (relative stereo)            5.39
4  COc1ccc([C@@H]2[C@H](Oc3ccccc3)C(=O)N2c2cc(OC)c(OC)c(OC)c2)cc1N            4.91
5  COc1cc(N2C(=O)[C@@H](Oc3ccccc3)[C@H]2c2ccc([N+](=O)[O-])cc2)cc(OC)c1OC (relative stereo)            4.20
6  COc1ccc([C@@H]2[C@H](Oc3ccccc3)C(=O)N2c2cc(OC)c(OC)c(OC)c2)cc1 (relative stereo)            4.46
7  COc1cc([C@@H]2[C@H](Oc3ccccc3)C(=O)N2c2cc(OC)c(OC)c(OC)c2)ccc1O (relative stereo)            4.49

###

Test system: MCF7
ASSAY INFO: Cytotoxicity against human MCF7 cells assessed as induction of cell death at 10 uM after 72 hrs by LDH assay
Type: cell-based
CONDITION PARAMETERS: mcf7, 72 h
Each entry below carries its recorded Activity.
PARAMETER MEASURED: Activity (%)

> print(dat)
                                   compound  subject.of.test  parameter.measured  endpoint.value
1  COc1cc(N2C(=O)[C@@H](Oc3ccccc3)[C@H]2c2ccc([S+](C)[O-])cc2)cc(OC)c1OC (relative stereo)             MCF7            Activity             1.7
2  COc1cc(N2C(=O)[C@@H](Oc3ccccc3)[C@H]2c2ccc([N+](=O)[O-])cc2)cc(OC)c1OC (relative stereo)             MCF7            Activity              27
3  COc1cc(N2C(=O)[C@H](Oc3ccccc3)[C@H]2c2ccc(C#N)cc2)cc(OC)c1OC (relative stereo)             MCF7            Activity             2.1
